Test: Pharmacokinetics from serial plasma samples after intravenous infusion
Settings: human, plasma, iv
Observed Property: half-life

What does the record list as half-life for C[C@@H]1NC(=O)[C@H](Cc2c[nH]cn2)NC(=O)[C@H](Cc2ccc(O)cc2)NC(=O)[C@@H]2CCCN2C(=O)[C@H]2CCCN2C(=O)[C@H](CCCCN)NC(=O)[C@H](CCC(N)=O)NC(=O)[C@H](Cc2ccc(O)cc2)NC(=O)[C@@H]2CSSC[C@H](NC1=O)C(=O)N[C@@H](CO)C(=O)N[C@@H](C)C(=O)N1CCC[C@@H]1C(=O)N[C@@H](CCN)C(=O)N[C@@H](CCCNC(=N)N)C(=O)N[C@@H](Cc1ccc(O)cc1)C(=O)N2 [balixafortide] ?
~5 h
